test system: MDA-MB-435; assay: NCI tumour cell line growth inhibition, 48 h
Below: a set of entries, each annotated with reported TGI.
property label: TGI

>>> df
                                   compound    result
0  O=c1[nH]c(=S)[nH]c2c(C3OC(CO)C(O)C3O)nsc12 (stereo not drawn)  > 100 µM
1    Cc1ccc(O)cc1Nc1ccnc2cc(-c3ccccn3)ccc12   5.65 µM
2       CC(=O)Nc1sccc1S(=O)(=O)c1ccc(Cl)cc1  > 100 µM

----------
system: PC-3 prostate; assay: NCI tumour cell line growth inhibition, 48 h
Item-by-item account of TGI
property label: TGI

In [3]: df
Out[3]:
                                    compound            tgt  property_label    result
 0  O=C(Nc1nc2c(s1)CCc1c-2c(Br)n(Cc2ccccc2)c1Br)c1ccccc1  PC-3 prostate             TGI  > 100 µM
 1              CCOC(=O)n1c2ccccc2c(=O)n1CCO  PC-3 prostate             TGI  > 100 µM
 2  N#C[C@H](C(=O)c1ccccc1F)c1nc2ccccc2[nH]1  PC-3 prostate             TGI  > 100 µM
 3  CN1CCOCCOCCOc2ccccc2NC(=O)c2nc(cnc2N)-c2ccc(cc2)S1(=O)=O  PC-3 prostate             TGI  > 100 µM
 4  C=C(C)[C@@H]1CC[C@]2(C(=O)n3ccnc3)CC[C@]3(C)[C@H](CC[C@@H]4[C@@]5(C)CCCNC(C)(C)[C@@H]5CC[C@]43C)[C@@H]12  PC-3 prostate             TGI   2.67 µM
 5  COc1cccc(N2C(=O)C3CC(CC(C)(C)C)c4c([nH]c5ccccc45)C3C2=O)c1 (stereo not given)  PC-3 prostate             TGI   > 10 µM
 6                 Nc1ncc(Sc2ccccc2C(=O)O)s1  PC-3 prostate             TGI  > 100 µM
 7  O=C(c1ccccc1)c1ccc2nc3n(c2c1)C(c1c(Cl)cccc1Cl)SC3 (stereo not given)  PC-3 prostate             TGI  > 100 µM
 8  O=C1C2C(C(=O)N1CC[Se][Se]CCN1C(=O)C3C(C1=O)[C@H]1C=C[C@@H]3C1)[C@H]1C=C[C@@H]2C1 (stereo not given in full)  PC-3 prostate             TGI   4.39 µM
 9  CN(C)CCS(=O)(=O)Nc1cc(-c2ccc3ncnc(Nc4ccc(F)c(Cl)c4)c3c2)cnc1Cl  PC-3 prostate             TGI  > 100 µM
10  CN(c1ccc(NC(=O)NCCN2CCOCC2)cc1)c1ccnc(Nc2ccc(CS(C)(=O)=O)cc2)n1  PC-3 prostate             TGI   > 25 µM
11  Cn1c(SCc2c[nH]c3ccccc23)nnc1-c1ccc(Cl)cc1Cl  PC-3 prostate             TGI   36.5 µM
12                       O/N=C1\CSc2ccccc2C1  PC-3 prostate             TGI  > 100 µM
13  CON(C)C(=O)C(C)NC(=O)OC(C)(C)C (stereo not given)  PC-3 prostate             TGI  > 100 µM
14     CCOC(=O)[C@@H]1C[C@@H]1c1ccc(O)c(O)c1  PC-3 prostate             TGI  > 100 µM
15  CCOc1cc2c(cc1O)CC[C@@H]1[C@@H]2CC[C@]2(C)[C@@H](O)CC[C@@H]12  PC-3 prostate             TGI   40.8 µM
16  Cc1cc(NS(=O)(=O)c2ccc(NC(=O)c3ccc4nc5ccccc5c(Nc5ccc(S(=O)(=O)Nc6cc(C)on6)cc5)c4c3)cc2)no1  PC-3 prostate             TGI   > 50 µM
17  OC(c1cc(-c2ccc(Cl)cc2)nc2c(Cl)cccc12)C1CCCCN1 (stereo not given)  PC-3 prostate             TGI   2.91 µM
18  NCC(Cc1ccccc1)P(=O)(O)O (stereo not given)  PC-3 prostate             TGI  > 100 µM
19  O=S(=O)(O)c1ccc2c(N=Nc3c(O)ccc4ccccc34)cccc2c1  PC-3 prostate             TGI  > 100 µM
